# TEST TARGET: human glucagon receptor (Homo sapiens)
# Construct: expressed in transfected cells; host or cells: BHK (baby hamster kidney) cells
# METHOD NOTES: Glucagon Binding Assay (III)
# ASSAY CONTEXT: value printed in the text of Example 315; read-out: Glu bd assay III
PROPERTY LABEL: pIC50
FYI, pIC50 means -log10 of a concentration in mol per litre.

Q. Give pIC50 for this entry on human glucagon receptor (Homo sapiens): CS(=O)(=O)c1cc(NC(=O)N(Cc2ccc(C(=O)Nc3nn[nH]n3)cc2)c2ccc(C3=CCCCC3)cc2)ccc1OC(F)(F)F [Example 315]
A. 7.66

* * *

# TEST TARGET: human glucagon receptor (Homo sapiens, UniProt P47871)
# Construct: expressed in transfected cells; host or cells: BHK (baby hamster kidney) cells
# Sequence (P47871 26-477): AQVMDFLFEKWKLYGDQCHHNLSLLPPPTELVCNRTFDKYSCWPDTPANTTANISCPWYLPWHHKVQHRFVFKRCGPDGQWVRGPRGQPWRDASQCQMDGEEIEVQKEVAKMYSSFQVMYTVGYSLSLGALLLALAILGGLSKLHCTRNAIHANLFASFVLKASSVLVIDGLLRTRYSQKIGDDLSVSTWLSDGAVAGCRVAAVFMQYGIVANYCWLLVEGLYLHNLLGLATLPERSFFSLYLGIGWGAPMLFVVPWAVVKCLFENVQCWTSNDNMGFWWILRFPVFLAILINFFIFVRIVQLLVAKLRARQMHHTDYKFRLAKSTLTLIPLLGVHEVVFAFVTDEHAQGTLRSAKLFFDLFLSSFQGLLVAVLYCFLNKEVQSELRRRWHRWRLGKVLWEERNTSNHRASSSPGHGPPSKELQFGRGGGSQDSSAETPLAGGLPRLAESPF
# METHOD NOTES: Glucagon Binding Assay (III)
# ASSAY CONTEXT: BHK cell membranes, WGA SPA beads, 125I-glucagon; read-out: Glu Bd Assay (III) IC50
Examples of molecules with documented pIC50 follow.
FYI, pIC50 means -log10 of a concentration in mol per litre.

Please review the following examples before continuing.
| MOLECULE | PROPERTY LABEL | OBSERVED |
| --- | --- | --- |
| CCN(CC)C(=O)c1cccc(NC(=O)N(Cc2ccc(C(=O)Nc3nn[nH]n3)cc2)c2ccc(C(C)(C)C)cc2)c1 | pIC50 | 5.94 |
| CC(C)(C)c1ccc(N(Cc2ccc(C(=O)Nc3nn[nH]n3)cc2)C(=O)c2cc3cc(OC(F)(F)F)ccc3[nH]2)cc1 | pIC50 | 5.96 |
| CC(C)(C)c1ccc(N(Cc2ccc(C(=O)Nc3nn[nH]n3)cc2)C(=O)Nc2ccc3c(c2)C(=O)N(CC2CC2)C3=O)cc1 | pIC50 | 8.22 |
| CC1CCCC(N(Cc2ccc(C(=O)NCCC(=O)O)cc2)C(=O)Nc2ccc(Oc3ccccc3)cc2)C1 (stereo not drawn) | pIC50 | 6.09 |
| O=C(O)CCNC(=O)c1ccc(CN(C(=O)c2cc(F)cc(C(F)(F)F)c2)C2CCC3(CCCCC3)CC2)cc1 | pIC50 | 5.97 |
| O=C(O)CCNC(=O)c1ccc(CN(NC(=O)c2ccc(OC(F)(F)F)cc2)C2CCC3CCCCC3C2)cc1 (stereo not drawn) | pIC50 | 6.29 |
| CC(C)(C)c1ccc(N(Cc2ccc(C(=O)Nc3nn[nH]n3)cc2)C(=O)Nc2ccc(Cl)c(C(F)(F)F)c2)cc1 | pIC50 | 7.52 |
| O=C(Nc1nn[nH]n1)c1ccc(CN(C(=O)Nc2cccc(S(=O)(=O)N3CCc4ccccc43)c2)c2ccc(C3CCCCC3)cc2)cc1 | pIC50 | 7.07 |
| O=C(Nc1nn[nH]n1)c1ccc(CN(C(=O)Nc2cccc([N+](=O)[O-])c2)c2ccc(OC(F)(F)F)cc2)cc1 | pIC50 | 6.82 |
| CC(C)(C)C1CCC(N(Cc2ccc(C(=O)Nc3nn[nH]n3)cc2)C(=O)C/C=C/c2ccccc2)CC1 (stereo not drawn) | pIC50 | 6.74 |

Q. Give pIC50 for this entry on human glucagon receptor (Homo sapiens, UniProt P47871): CC(C)Oc1ccc(C(=O)N(Cc2ccc(C(=O)NCCC(=O)O)cc2)C2CCC(C(C)(C)C)CC2)cc1 (stereo not drawn)
A. 5.77

Q. Give pIC50 for this entry on human glucagon receptor (Homo sapiens, UniProt P47871): `CC(C)(C)c1ccc(N(Cc2ccc(C(=O)NCCC(=O)O)cc2)C(=O)Oc2ccc(OC(F)(F)F)cc2)cc1`
A. 6.15

Q. Give pIC50 for this entry on human glucagon receptor (Homo sapiens, UniProt P47871): `O=C(Nc1nn[nH]n1)c1ccc(CN(C(=O)/C=C/c2c(Cl)cccc2Cl)c2ccc(C3CCCCC3)cc2)cc1`
A. 6.56
